Quick reference for pIC50 among some molecules
Target: Protein Tat (Human immunodeficiency virus type 1 group M subtype B (isolate HXB2)) (UniProt P04608)
Sequence (P04608 whole entry, looked up): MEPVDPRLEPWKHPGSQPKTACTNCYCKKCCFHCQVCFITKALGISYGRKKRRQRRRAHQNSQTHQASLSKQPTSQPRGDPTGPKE
Test: inhibitors of Tat binding to TAR RNA, dose response, counter-screen for Vif-APOBEC3G degradation inhibitor project, biochemical, fluorescence polarization, FAM-labeled TAR RNA (AID 1117361)
In plain terms, pIC50 is the concentration in mol/L turned into minus its base-10 logarithm.

molecule: CCc1ccc(NC(=O)N(CCN2CCOCC2)Cc2ccc3c(c2)CCCN3CC)cc1
measurement_type: pIC50
value_reported: 4.13
//
molecule: CCCCn1c(O)c(C(CC)=NCCN2CCCCC2)c(=O)[nH]c1=O
measurement_type: pIC50
value_reported: 4.49
//
molecule: Nc1c(C(=O)NC2CC2)sc2nc3c(c(-c4ccco4)c12)CC/C3=C/c1ccco1
measurement_type: pIC50
value_reported: 6.03
//
molecule: O=C1CCCC(O)=C1N=Nc1ccc(C(=O)O)cc1
measurement_type: pIC50
value_reported: 5.19
//
molecule: O=C1CCC/C1=C/Nc1ccc2c(c1)OCO2
measurement_type: pIC50
value_reported: 4.71

# pIC50 (molecule: Cc1ccc[n+](-c2[nH]c(=O)sc2/C=N/NC(=O)c2ccccc2[O-])c1 ) is 4.66

Please fill in: pIC50 reported for CCOC(=O)C1CCN(C(=O)COc2ccc(S(=O)(=O)NC(C)C)cc2)CC1 = 4.09

Memo: CC1(OC(=O)CCc2ccccc2)C(=O)C=C2C=C(c3ccsc3)OC=C2C1=O (centres undefined) , reported pIC50: 4.18

Reported pIC50 of COc1ccc(OC)c(S(=O)(=O)Nc2ccc(O)c3ccccc23)c1 : 4.08

// O=C(Nc1ccc(Br)cn1)c1coc(=O)c(Br)c1 : pIC50 value = 4.10

Per the record, Brc1c(CSc2nnc(-c3ccco3)o2)nc2ccccn12 has pIC50 of 4.62

The reported pIC50 of the molecule Cc1cc(C(=O)COC(=O)c2cc(O)c3ccccc3c2O)c(C)n1CC1CCCO1 (centres undefined) was 5.04
